From: BindingDB's records for doi:10.1021/jm00022a011

Reported Ki, Human immunodeficiency virus type 1 protease (Human immunodeficiency virus 1).
Measured metric: Ki (µM)

O=c1oc2c(c(O)c1C(c1ccccc1)C1CC1)CCCCCCC2CC1CC1 (configuration not stated)
0.024
O=c1oc2c(c(O)c1C(c1ccccc1)C1CC1)CCCCCC2CC1CC1 (configuration not stated)
0.024
